- procedure text: Aqueous solubility of the compound
- Assay type: physicochemical
- condition parameters: aqueous medium
Listing of recorded solubility by entry.

{"columns": ["smiles notation", "obs value"],
 "data": [
  ["Cl.O=S(=O)(/C=C/c1ncccc1F)c1ccc(OCCCN2CCOCC2)cc1", "> 30 mg/mL"]
]}

Query compound follows.
The compound listed as COc1ccccc1S(=O)(=O)/C=C/c1ccccc1Cl has a reported solubility of < 0.01 mg/mL

---

- procedure text: Oral bioavailability in rat at 10 mg/kg
- Format: ADME, organism-based
- condition parameters: in vivo
reported metric: bioavailability (%)
Give a bare numeral; the unit % is implied.

The molecule listed as Cl.O=S(=O)(/C=C/c1ncccc1F)c1ccc(OCCCN2CCOCC2)cc1 has a reported bioavailability of 45.3
